# System: MOLT-4
# assay.remarks: NCI tumour cell line growth inhibition, 48 h
Active and inactive are the calls of the source. No stated cut-off is given here; in the data, active = GI50 up to about 1.1 µM and inactive = higher.
// classify into active, inactive

Asked: I'd appreciate the recorded outcome for O=C(c1ccccc1)N1OCCC1Nc1ccc(Br)cc1 (configuration not stated) from this test.
Given back: inactive

Asked: I'd appreciate the recorded outcome for Nc1nc(=O)c2cc(NCc3ccc(C(=O)NC(CCC(=O)O)C(=O)O)cc3)ccc2[nH]1 (configuration not stated) from this test.
Given back: inactive

Asked: I'd appreciate the recorded outcome for `O=C(NC(=O)c1cn(CCN2CCNCC2)c(=O)[nH]c1=O)OCc1ccccc1` from this test.
Given back: inactive

Asked: I'd appreciate the recorded outcome for `O=C(Nc1cccs1)c1c(O)[nH]c(=S)[nH]c1=O` from this test.
Given back: inactive

Asked: I'd appreciate the recorded outcome for `CSc1nc(C)c2c(n1)N(c1ccc(Cl)cc1)CC2` from this test.
Given back: inactive

Asked: I'd appreciate the recorded outcome for C/C=C/[C@H]1O[C@@](O)([C@@H](C)[C@H](O)[C@H](C)[C@H]2OC(=O)/C(OC)=C/C(C)=C/[C@@H](C)[C@@H](O)[C@@H](CC)[C@@H](O)[C@H](C)C/C(C)=C/C=C/[C@@H]2OC)C[C@H](OC2CC(O)C(OC(N)=O)C(C)O2)[C@@H]1C (some centres not stated) from this test.
Given back: active

Asked: I'd appreciate the recorded outcome for CCOc1cc(NC(C)=O)ccc1C(=O)NN1C(=O)C(Cl)C1c1ccccc1 (configuration not stated) from this test.
Given back: inactive

Asked: I'd appreciate the recorded outcome for CCOC(=O)C1=C(OC(OCC)C(C)[Se]c2ccccc2)CCC1 (configuration not stated) from this test.
Given back: inactive

Asked: I'd appreciate the recorded outcome for `Nc1ccn([C@H]2CO[C@@H](CO)O2)c(=O)n1` from this test.
Given back: active

Asked: I'd appreciate the recorded outcome for `COc1ccc(/C=N/n2c(C)n[nH]c2=O)cc1` from this test.
Given back: inactive

Asked: I'd appreciate the recorded outcome for CC(=O)OC1CC2C(C)(C)C(=O)C=C[C@]2(C)C2CCC3(C)C(=CC(=O)C3c3ccoc3)[C@]12C (some centres not stated) from this test.
Given back: inactive

Asked: I'd appreciate the recorded outcome for CC1=CCN(c2ccccn2)OC1c1ccccc1 (configuration not stated) from this test.
Given back: inactive

Asked: I'd appreciate the recorded outcome for `C[N+](C)(N)Cc1nc(-c2ccc(Cl)cc2)no1` from this test.
Given back: inactive

Asked: I'd appreciate the recorded outcome for C[N+]1(CC[N+]2(C)CCCC2c2cccnc2)CCCC1c1cccnc1 (configuration not stated) from this test.
Given back: inactive

Asked: I'd appreciate the recorded outcome for CC1(C)COC(C23C4C5C2C2C3C4C52I)=N1 (configuration not stated) from this test.
Given back: inactive

Asked: I'd appreciate the recorded outcome for `O=C(COc1cc(=O)oc2ccccc12)c1ccccc1` from this test.
Given back: inactive

Asked: I'd appreciate the recorded outcome for `CCOC(=O)c1csc(NC(=O)CN2CCN(C)CC2)n1` from this test.
Given back: inactive

Asked: I'd appreciate the recorded outcome for `O=S(=O)(c1ccccc1)C1CN(Cc2ccccc2)CCN(Cc2ccccc2)C1` from this test.
Given back: inactive

Asked: I'd appreciate the recorded outcome for `Oc1ccccc1C(Sc1nc2ccccc2s1)Sc1nc2ccccc2s1` from this test.
Given back: inactive

Asked: I'd appreciate the recorded outcome for `C/C(=N\N=C(N)N)c1c(C(=O)OCCCCCCOC(=O)c2nc3sccn3c2/C(C)=N/N=C(N)N)nc2sccn12` from this test.
Given back: inactive

Asked: I'd appreciate the recorded outcome for `CC(=O)c1cc2ccccc2oc1=O` from this test.
Given back: inactive

Asked: I'd appreciate the recorded outcome for `CNS(=O)(=O)c1ccc2c(c1)/C(=C1/Nc3ccccc3C1=O)C(=O)N2` from this test.
Given back: inactive

----------
# System: SK-MEL-2
# assay.remarks: NCI tumour cell line growth inhibition, 48 h
The source made the active and inactive calls. Rule as the data show it: active = GI50 up to about 1.1 µM and inactive = higher.
assay.readout: GI50

Asked: Output measured GI50 for this item: O=C1C2C(C(=O)N1c1ccccc1)C1(Br)c3ccccc3C2(Br)C2C(=O)N(c3ccccc3)C(=O)C21 (centres undefined)
Given back: 31.4 µM (inactive)

Asked: Output measured GI50 for this item: `CCCCCCCCCCCCCCCCS(=O)(=O)c1ccc(NN)cc1`
Given back: > 10 µM (inactive)

Asked: Output measured GI50 for this item: `COc1cc(/C=N/n2c(Cc3ccc(Cl)cc3)n[nH]c2=O)cc(OC)c1OC`
Given back: > 100 µM (inactive)

Asked: Output measured GI50 for this item: `N=C(N)SCc1cccc([N+](=O)[O-])c1`
Given back: 24 µM (inactive)

Asked: Output measured GI50 for this item: `C[C@H](NC(=O)c1ccc(CNC(=O)/C=C/c2cccc(Oc3ccccc3)c2)cc1)c1ccccc1`
Given back: > 100 µM (inactive)

Asked: Output measured GI50 for this item: CC1(C)CC(=O)C2=C(C1)OC1=C(CC(C)(C)CC1=O)C2c1ccccc1Cl (centres undefined)
Given back: > 100 µM (inactive)

Asked: Output measured GI50 for this item: `COC(=O)C(CCCCN)NC(=O)C(CCCCN)NC(C)=O.Cc1ccc(C(=O)Nc2ccc(S(=O)(=O)O)c3cc(S(=O)(=O)O)cc(S(=O)(=O)O)c23)cc1NC(=O)c1cccc(NC(=O)Nc2cccc(C(=O)Nc3cc(C(=O)Nc4ccc(S(=O)(=O)O)c5cc(S(=O)(=O)O)cc(S(=O)(=O)O)c45)ccc3C)c2)c1`
Given back: > 50 µM (inactive)

Asked: Output measured GI50 for this item: `C[N+](C)(C)CC(=O)N/N=C(/Cc1nc2ccc(Cl)cc2nc1O)C1=NS(=O)(=O)c2cc(S(N)(=O)=O)c(Cl)cc2N1`
Given back: > 100 µM (inactive)

Asked: Output measured GI50 for this item: `O=C1/C(=C/c2ccc3c(c2)CCC3)Cc2cc3c(cc21)CCC3`
Given back: > 100 µM (inactive)

----------
# System: DLD-1
# assay.remarks: NCI tumour cell line growth inhibition, 48 h
Active and inactive are the calls of the source. Rule as the data show it: active = GI50 up to about 1.1 µM and inactive = higher.
assay.readout: GI50

Asked: Output measured GI50 for this item: COc1c(O)c(O)cc2c1-c1ccc(OC)c(=O)cc1C(NC(C)=O)CC2 (stereo not given)
Given back: 4.71 µM (inactive)

Asked: Output measured GI50 for this item: O=C1OC2C=CC1C1(CCOC1=O)C2 (stereo not given)
Given back: > 100 µM (inactive)

Asked: Output measured GI50 for this item: COc1cc2c(cc1OC)C(O)[C@H](Br)C(C)(C)O2 (stereo not given in full)
Given back: > 100 µM (inactive)

Asked: Output measured GI50 for this item: `NS(=O)(=O)OCCCCCCCOS(N)(=O)=O`
Given back: 495 µM (inactive)

Asked: Output measured GI50 for this item: COc1cc2c(cc1OC)C(CC(=O)NN=C(C)C)NCC2 (stereo not given)
Given back: > 100 µM (inactive)

Asked: Output measured GI50 for this item: N#CC(C(=O)/C(=N/NC(=O)c1ccccc1O)C(C#N)c1ccc(Cl)cc1)c1ccc(Cl)cc1 (stereo not given)
Given back: 11.9 µM (inactive)

Asked: Output measured GI50 for this item: O=[N+]([O-])c1ccc(C2CC(c3ccccc3Cl)=Nc3ccccc3S2)cc1 (stereo not given)
Given back: 2.3 µM (inactive)

Asked: Output measured GI50 for this item: `O=[N+]([O-])c1cccc2nc3ccccc3c(NCCO)c12`
Given back: 0.000277 µM (active)

Asked: Output measured GI50 for this item: Cc1ccc(C(=O)C(C)N)cc1C (stereo not given)
Given back: > 100 µM (inactive)

Asked: Output measured GI50 for this item: `CCCNC1=C(C(=O)OCC)C(=O)CO1`
Given back: > 100 µM (inactive)

Asked: Output measured GI50 for this item: Nc1ccccc1C(=O)C(Br)C(Br)c1ccc2c(c1)OCO2 (stereo not given)
Given back: 33.6 µM (inactive)

Asked: Output measured GI50 for this item: CCCCCCCCCCCCCCCCCCOCC(O)CO (stereo not given)
Given back: > 25 µM (inactive)

Asked: Output measured GI50 for this item: `C[N+](C)(C)CC(=O)N/N=C(/Cc1nc2ccc(Cl)cc2nc1O)C1=NS(=O)(=O)c2cc(S(N)(=O)=O)c(Cl)cc2N1`
Given back: > 100 µM (inactive)

Asked: Output measured GI50 for this item: `COc1ccccc1/C=C(\NC(=O)c1ccccc1)c1nc2ccc(Cl)cc2[nH]1`
Given back: 23.8 µM (inactive)

Asked: Output measured GI50 for this item: C[C@]12CCC(=O)C=C1CC[C@@H]1[C@@H]2[C@@H](O)C[C@@]2(C)[C@H]1CC[C@]2(O)C(=O)COC(=O)CCC1CCCC1 [HYDROCORTISONE CYPIONATE]
Given back: > 100 µM (inactive)

Asked: Output measured GI50 for this item: `O=c1[nH]nc(-c2ccccc2)c(-c2ccccc2)c1-n1nc(-c2ccccc2)c2ccccc2c1=O`
Given back: 76.7 µM (inactive)

Asked: Output measured GI50 for this item: `C/C1=N\[N-]C(=O)c2ccccc2C(=O)N/N=C(\C)c2cccc1n2.O=[N+]([O-])[O-].[Zn+2]`
Given back: > 100 µM (inactive)

Asked: Output measured GI50 for this item: `CCOc1ccc(/C=C(\Cl)c2ccc(OC)c(OC)c2)cc1`
Given back: 22.5 µM (inactive)

Asked: Output measured GI50 for this item: `COc1cc2c(c(OC)c1OC)-c1ccc(SC)c(=O)cc1[C@@H](NCc1cccc([N+](=O)[O-])c1)CC2`
Given back: < 0.01 µM (active)

Asked: Output measured GI50 for this item: c1cc2c3c(c1)c1cc4c(cc1c[n+]3CC2)OCO4 [ANHYDROLYCORINIUM CHLORIDE]
Given back: 8.83 µM (inactive)

Hey, just so you know, these numbers are from ChEMBL document CHEMBL1201862.
